// provenance: ChEMBL document CHEMBL4251615

# System: A498
# test: Growth inhibition of human A498 cells assessed as cell growth at 10 uM incubated for 48 hrs by sulforhodamine B assay relative to control
# Type: functional
# setup conditions: A498, 48 h, read-out: Activity
// label = MET if growth at 10 µM is not less than 80%, otherwise NOT MET

Q: growth at 10 µM >= 80% for Cc1oc2ncnc(Nc3cccc(Cl)c3)c2c1CO ?
Ans: NOT MET

Q: Another: CCOC(=O)c1c(C)oc2ncnc(Nc3ccc(OCc4cccc(F)c4)cc3)c12
Ans: MET

Q: Another: Cc1cccc(Nc2ncnc3oc(C)c(C(=O)NCCO)c23)c1
Ans: NOT MET

Q: Another: CCOC(=O)c1c(C)oc2ncnc(Nc3cccc(F)c3)c12
Ans: NOT MET

Q: Another: CCOC(=O)c1c(C)oc2ncnc(Nc3ccc(OCc4ccc(Cl)c(Cl)c4)cc3)c12
Ans: MET

Q: Another: CCOC(=O)c1c(C)oc2ncnc(Nc3ccc(F)c(Cl)c3)c12
Ans: MET

Q: Another: Cc1oc2ncnc(Nc3cccc(F)c3)c2c1C(=O)O
Ans: MET

Q: Another: CCCNC(=O)c1c(C)oc2ncnc(Nc3cccc(Cl)c3)c12
Ans: NOT MET

----------
# System: SW-620
# test: Growth inhibition of human SW620 cells assessed as cell growth at 10 uM incubated for 48 hrs by sulforhodamine B assay relative to control
# Type: functional
# setup conditions: SW-620, 48 h, read-out: Activity
observation type: growth at 10 µM (%)
Could you give me the number in %? Just the number is fine.

Q: I am curious: what growth at 10 µM value has been reported for CCOC(=O)c1c(C)oc2ncnc(Nc3ccc(F)cc3)c12 ?
Ans: 94.9

Q: Another: Cc1oc2ncnc(Nc3ccc(OCc4cccc(F)c4)c(Cl)c3)c2c1C(=O)NCCO
Ans: 93.4

Q: Another: Cc1cccc(Nc2ncnc3oc(C)c(C(=O)NCCO)c23)c1
Ans: 96

Q: Another: CCCNC(=O)c1c(C)oc2ncnc(Nc3cccc(Cl)c3)c12
Ans: 106

----------
# assay target: Epidermal growth factor receptor (Homo sapiens, UniProt P00533)
# Sequence (P00533 whole entry, the tested form may be a part): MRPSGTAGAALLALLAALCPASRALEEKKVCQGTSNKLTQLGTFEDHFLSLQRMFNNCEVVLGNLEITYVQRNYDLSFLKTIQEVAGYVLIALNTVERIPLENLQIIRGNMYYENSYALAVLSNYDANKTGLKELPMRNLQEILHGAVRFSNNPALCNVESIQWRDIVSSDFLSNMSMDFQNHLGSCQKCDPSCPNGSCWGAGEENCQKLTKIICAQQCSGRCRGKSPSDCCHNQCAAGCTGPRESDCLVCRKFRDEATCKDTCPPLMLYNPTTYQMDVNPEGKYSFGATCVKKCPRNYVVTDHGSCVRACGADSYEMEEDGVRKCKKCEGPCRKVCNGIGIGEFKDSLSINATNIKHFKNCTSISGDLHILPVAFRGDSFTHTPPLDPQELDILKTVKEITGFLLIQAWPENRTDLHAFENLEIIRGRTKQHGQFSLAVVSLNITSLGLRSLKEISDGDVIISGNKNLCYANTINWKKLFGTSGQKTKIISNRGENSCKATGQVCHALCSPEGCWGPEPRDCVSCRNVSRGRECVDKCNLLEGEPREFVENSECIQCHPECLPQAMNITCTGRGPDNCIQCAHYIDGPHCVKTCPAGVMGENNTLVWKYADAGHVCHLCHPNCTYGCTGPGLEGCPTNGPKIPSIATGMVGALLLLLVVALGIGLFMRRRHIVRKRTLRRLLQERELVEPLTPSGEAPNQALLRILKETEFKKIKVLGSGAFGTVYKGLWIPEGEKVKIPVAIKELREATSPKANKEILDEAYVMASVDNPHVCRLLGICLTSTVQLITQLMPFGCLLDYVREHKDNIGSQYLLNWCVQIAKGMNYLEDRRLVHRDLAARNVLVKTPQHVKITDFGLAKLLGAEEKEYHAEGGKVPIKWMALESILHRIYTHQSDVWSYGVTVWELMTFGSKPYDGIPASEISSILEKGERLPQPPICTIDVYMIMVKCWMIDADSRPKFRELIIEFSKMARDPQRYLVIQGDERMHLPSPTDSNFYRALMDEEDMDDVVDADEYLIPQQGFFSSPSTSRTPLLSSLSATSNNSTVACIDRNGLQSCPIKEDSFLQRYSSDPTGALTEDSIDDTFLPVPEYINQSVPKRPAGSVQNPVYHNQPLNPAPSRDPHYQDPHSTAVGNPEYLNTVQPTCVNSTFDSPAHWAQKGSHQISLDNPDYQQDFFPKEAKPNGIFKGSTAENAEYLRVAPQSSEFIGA
# test: Inhibition of recombinant human C-terminal His/N-terminal GST-tagged EGFR (668 to 1210 residues) expressed in baculovirus infected Sf9 cells at 10 uM using biotin-labeled poly[Glu:Tyr] (4:1) as substrate after 30 mins by Kinase-Glo plus luminescence assay relative to control
observation type: inhibition (%)
Could you give me the number in %? Just the number is fine.

Q: I am curious: what inhibition value has been reported for Cc1oc2ncnc(Nc3cccc(Cl)c3)c2c1C(=O)O ?
Ans: 85

Q: Another: CCOC(=O)c1c(C)oc2ncnc(Nc3ccc(OCc4cccc(F)c4)c(Cl)c3)c12
Ans: 18

Q: Another: Cc1oc2ncnc(Nc3cccc(Cl)c3)c2c1C(=O)NC(C)C
Ans: 21

Q: Another: Cc1oc2ncnc(Nc3ccccc3)c2c1C(=O)O
Ans: 30

Q: Another: CCOC(=O)c1c(C)oc2ncnc(Nc3ccc(OCc4ccc(Cl)c(Cl)c4)cc3)c12
Ans: 0

----------
# Tested on: COLO 205
# test: Growth inhibition of human COLO205 cells assessed as cell growth at 10 uM incubated for 48 hrs by sulforhodamine B assay relative to control
# Assay type: functional
# setup conditions: COLO 205, 48 h, read-out: Activity
observation type: growth at 10 µM (%)
Could you give me the number in %? Just the number is fine.

Q: Test system COLO 205; read-out growth at 10 µM; what value for Cc1oc2ncnc(Nc3ccc(OCc4cccc(F)c4)c(Cl)c3)c2c1C(=O)NCCO ?
Ans: 85.7

Q: Another: Cc1oc2ncnc(Nc3cccc(Cl)c3)c2c1CO
Ans: 93.9

Q: Another: CCCNC(=O)c1c(C)oc2ncnc(Nc3cccc(Cl)c3)c12
Ans: 104

----------
# Test system: SNB-19
# test: Growth inhibition of human SNB19 cells assessed as cell growth at 10 uM incubated for 48 hrs by sulforhodamine B assay relative to control
# Type: functional
# setup conditions: SNB-19, 48 h, read-out: Activity
observation type: growth at 10 µM
Please answer using the number first and the unit second.

Q: I am curious: what growth at 10 µM value has been reported for CCOC(=O)c1c(C)oc2ncnc(Nc3ccc(OCc4cccc(F)c4)cc3)c12 ?
Ans: 99.5%

Q: Another: CCCNC(=O)c1c(C)oc2ncnc(Nc3cccc(Cl)c3)c12
Ans: 106%

Q: Another: Cc1cccc(Nc2ncnc3oc(C)c(C(=O)NCCO)c23)c1
Ans: 103%

----------
# System: OVCAR-4
# test: Growth inhibition of human OVCAR4 cells assessed as cell growth at 10 uM incubated for 48 hrs by sulforhodamine B assay relative to control
# Assay type: functional
# setup conditions: OVCAR-4, 48 h, read-out: Activity
observation type: growth at 10 µM

Q: I am curious: what growth at 10 µM value has been reported for CCOC(=O)c1c(C)oc2ncnc(Nc3ccc(OCc4cccc(C)c4)cc3)c12 ?
Ans: 105%

Q: Another: CCOC(=O)c1c(C)oc2ncnc(Nc3cccc(F)c3)c12
Ans: 108%

Q: Another: Cc1oc2ncnc(Nc3cccc(F)c3)c2c1C(=O)O
Ans: 101%

Q: Another: Cc1cccc(Nc2ncnc3oc(C)c(C(=O)NCCN4CCOCC4)c23)c1
Ans: 110%

Q: Another: Cc1oc2ncnc(Nc3ccccc3)c2c1C(=O)NCCO
Ans: 103%

----------
Record form. Attribute: growth at 10 µM. Fill in for each entry.
# System: DU-145
# test: Growth inhibition of human DU145 cells assessed as cell growth at 10 uM incubated for 48 hrs by sulforhodamine B assay relative to control
# Assay type: functional
# setup conditions: DU-145, 48 h, read-out: Activity
Could you give me the number in %? Just the number is fine.

Q: I am curious: what growth at 10 µM value has been reported for Cc1oc2ncnc(Nc3cccc(Cl)c3)c2c1CO ?
Ans: 86.2

Q: Another: CCOC(=O)c1c(C)oc2ncnc(Nc3ccc(OCc4cccc(C)c4)cc3)c12
Ans: 101

Q: Another: Cc1cccc(Nc2ncnc3oc(C)c(C(=O)NCCO)c23)c1
Ans: 103

Q: Another: CCOC(=O)c1c(C)oc2ncnc(Nc3ccc(F)cc3)c12
Ans: 101

Q: Another: Cc1oc2ncnc(Nc3cccc(F)c3)c2c1C(=O)O
Ans: 107
